B1: PRAME (parent)
chain: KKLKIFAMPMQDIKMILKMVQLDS

Variants of: B1
Assay info: protein stability index of a GFP-peptide fusion (GPS, HEK-293T) (PSI 1-6); higher = more stable;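 further: lentivirally expressed fusions sorted by FACS into six bins by GFP to DsRed ratio, PSI derived from sequencing read proportions per bin multiplied by bin number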
Test conditions: c terminus: a fixed tail appended
// FALSE strictly below 2 in protein stability index; TRUE otherwise

- KKLKIFAMPMQDIKMILKMVMLDS [Q21M]: TRUE
- KKLKIFAMPMQDIKMILKMVCLDS [Q21C]: TRUE
- KKLKIFAMPMQDIKNILKMVQLDS [M15N]: FALSE
- KKLKIFAMPTQDIKMILKMVQLDS [M10T]: TRUE
- KKLKIFAMHMQDIKMILKMVQLDS [P9H]: TRUE
- KKLKIFAMPMQDIKMGLKMVQLDS [I16G]: TRUE
- KVLKIFAMPMQDIKMILKMVQLDS [K2V]: TRUE
- RKLKIFAMPMQDIKMILKMVQLDS [K1R]: TRUE
- KKLKIFAMPMQDIKMYLKMVQLDS [I16Y]: TRUE
- KKLKIFAMPMQDIKMILKDVQLDS [M19D]: TRUE
- KKLKIFAMPMQDTKMILKMVQLDS [I13T]: FALSE
- KKLKIFAMPMQDVKMILKMVQLDS [I13V]: TRUE
- KKLKIFAMPMQDIKMSLKMVQLDS [I16S]: TRUE
- KKLKIFAMPMQDIKMILKMCQLDS [V20C]: TRUE
- KKLKIFAMPMQDIKMILKMVQLDG [S24G]: TRUE
- KKLKIFAMPMQDIKMILKMVQRDS [L22R]: TRUE
- KKLKIFAMWMQDIKMILKMVQLDS [P9W]: TRUE
- KKLKIFKMPMQDIKMILKMVQLDS [A7K]: TRUE
- KKLKIFAMPMQDIKMIKKMVQLDS [L17K]: TRUE
- KNLKIFAMPMQDIKMILKMVQLDS [K2N]: TRUE
- KKLCIFAMPMQDIKMILKMVQLDS [K4C]: TRUE
- KKDKIFAMPMQDIKMILKMVQLDS [L3D]: TRUE
- KKLKIFAMPMQDIKMILKMNQLDS [V20N]: TRUE
- KKLKIFAMPMQQIKMILKMVQLDS [D12Q]: TRUE
- KKLKINAMPMQDIKMILKMVQLDS [F6N]: FALSE
- KRLKIFAMPMQDIKMILKMVQLDS [K2R]: FALSE
- KKLKIFAMCMQDIKMILKMVQLDS [P9C]: TRUE
- KKLKIFAMPMQDIKMILKMVQLMS [D23M]: FALSE
- KKRKIFAMPMQDIKMILKMVQLDS [L3R]: TRUE
- KKLKIFAMPMQDIKMILKMDQLDS [V20D]: TRUE
- KKLKIFAPPMQDIKMILKMVQLDS [M8P]: FALSE
- KKLKIFAMPMQDIKMILKMVQLTS [D23T]: TRUE
- KKLKIFAMPMQDWKMILKMVQLDS [I13W]: FALSE
- KKLKIFAMPMQDIKMTLKMVQLDS [I16T]: TRUE
- KKLKIFAMPMQDIKMIPKMVQLDS [L17P]: TRUE
- KKLKIFAMPMQDIKMILKMFQLDS [V20F]: TRUE
- KKLKIFAMPMQDIKMILKMVQLSS [D23S]: TRUE
- KKLKIFAMPMQDIKMCLKMVQLDS [I16C]: TRUE
- KKLKIFAMPMQDIKQILKMVQLDS [M15Q]: FALSE
- KLLKIFAMPMQDIKMILKMVQLDS [K2L]: TRUE
- KKLKPFAMPMQDIKMILKMVQLDS [I5P]: TRUE
- KKLKIFAMPMQDIKMILKMVQLLS [D23L]: TRUE
- KKLKIFAMPMQDIKHILKMVQLDS [M15H]: TRUE
- KKLKIFAMPMQDIKMILPMVQLDS [K18P]: FALSE
- KKLKIFAMPMQDIKMPLKMVQLDS [I16P]: FALSE
- KKLKIFAMPMQDIKMINKMVQLDS [L17N]: FALSE
- KKLKIFAMPMQDIKMILKMVKLDS [Q21K]: TRUE
- KKLKIFAMPMQDIKMILKMVQLDT [S24T]: TRUE
- KKLKIFAMNMQDIKMILKMVQLDS [P9N]: FALSE
- PKLKIFAMPMQDIKMILKMVQLDS [K1P]: TRUE
- KKLKIFAMPMQRIKMILKMVQLDS [D12R]: TRUE
- KKLKIFAMPMQDINMILKMVQLDS [K14N]: TRUE
- KYLKIFAMPMQDIKMILKMVQLDS [K2Y]: TRUE
- KKLTIFAMPMQDIKMILKMVQLDS [K4T]: TRUE
- KKLKIFAMPMGDIKMILKMVQLDS [Q11G]: TRUE
- KKLKIFAMPMQDIKMFLKMVQLDS [I16F]: TRUE
- KKLKIFAMPMQDIKMLLKMVQLDS [I16L]: FALSE
- KKLKIFAMPMQPIKMILKMVQLDS [D12P]: TRUE
- KKLKIFMMPMQDIKMILKMVQLDS [A7M]: TRUE
- KKLKIFANPMQDIKMILKMVQLDS [M8N]: TRUE
- KKLKIFAMPMLDIKMILKMVQLDS [Q11L]: TRUE
- KKLKIFAMPKQDIKMILKMVQLDS [M10K]: TRUE
- KKLKIFAMPMHDIKMILKMVQLDS [Q11H]: TRUE
- KKLKIFAMIMQDIKMILKMVQLDS [P9I]: TRUE
- KKLKRFAMPMQDIKMILKMVQLDS [I5R]: TRUE
- KKLKIFAMPNQDIKMILKMVQLDS [M10N]: TRUE
- KKLKIFAMPMQDFKMILKMVQLDS [I13F]: TRUE
- KKLKIFAMPYQDIKMILKMVQLDS [M10Y]: TRUE
- KKLHIFAMPMQDIKMILKMVQLDS [K4H]: TRUE
- KKLKIFAMPMQDICMILKMVQLDS [K14C]: TRUE
- KKHKIFAMPMQDIKMILKMVQLDS [L3H]: TRUE
- KKLKIMAMPMQDIKMILKMVQLDS [F6M]: FALSE
- KKLKIFAMPMQDIKMIIKMVQLDS [L17I]: TRUE
- KKLKIDAMPMQDIKMILKMVQLDS [F6D]: FALSE
- KKLKIFAMPMQDIKMILKMVQLDM [S24M]: TRUE
- KKLKIFAMPMQDIGMILKMVQLDS [K14G]: TRUE
- KKLKIFAMPMQDIKMILTMVQLDS [K18T]: TRUE
- KKLKIFAMPMYDIKMILKMVQLDS [Q11Y]: TRUE
- KKLKIRAMPMQDIKMILKMVQLDS [F6R]: TRUE
- KKLKIFSMPMQDIKMILKMVQLDS [A7S]: TRUE
- KKLNIFAMPMQDIKMILKMVQLDS [K4N]: FALSE
- KKLKIFAMPVQDIKMILKMVQLDS [M10V]: TRUE
- KKLKIFAMPMQDIKMIRKMVQLDS [L17R]: FALSE
- KKLKIFAMPMQDIKMILKMVQLDR [S24R]: TRUE
- KKLKIFAMPMQDIKMILVMVQLDS [K18V]: TRUE
- KKLKYFAMPMQDIKMILKMVQLDS [I5Y]: TRUE
